target.or.test.system: T1, IL-11 (Cat. 12225-HNCE, Sino Biological Inc.) (UniProt P20809 22-199, limits assumed)
T1 sequence (looked up): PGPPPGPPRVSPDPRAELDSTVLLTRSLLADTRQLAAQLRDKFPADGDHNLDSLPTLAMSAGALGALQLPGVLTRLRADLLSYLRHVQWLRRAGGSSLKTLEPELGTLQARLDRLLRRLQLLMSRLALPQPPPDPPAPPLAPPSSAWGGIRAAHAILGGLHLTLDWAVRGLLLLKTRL
protocol: cell-based or functional assay
Listed below: Blocking activity (IC50), STAT3-luc reporter values for each entry.
The reply should be a number in µg/mL, with the unit left off.

| binder | data.value |
| --- | --- |
| hz18A10-VHm20 + hz18A10-VLm19 (antibody, V domains shown, Constant regions not restated for this antibody) VH: EVQLVQSGAEVKKPGASVKVSCKASGYTFTHYNMDWVRQAPGQGLEWMGTIYPGQGDTSYNQKFKGRVTMTRDTSTSTVYMELSSLRSEDTAVYYCARGDLYALDYWGQGTLVTVSS VL: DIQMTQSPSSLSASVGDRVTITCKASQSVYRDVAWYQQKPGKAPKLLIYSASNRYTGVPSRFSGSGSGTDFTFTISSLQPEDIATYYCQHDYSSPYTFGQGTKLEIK | 0.061 |

Given hz18A10-VH + hz18A10-VLm6 (antibody, V domains shown, Constant regions not restated for this antibody) VH: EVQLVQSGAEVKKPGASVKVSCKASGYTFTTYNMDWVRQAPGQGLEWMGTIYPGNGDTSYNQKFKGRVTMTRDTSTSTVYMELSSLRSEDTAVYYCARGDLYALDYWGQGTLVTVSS VL: DIQMTQSPSSLSASVGDRVTITCKASQSVFHDVAWYQQKPGKAPKLLIYSASNRYTGVPSRFSGSGSGTDFTFTISSLQPEDIATYYCQHDYSSPYTFGQGTKLEIK , respond with its Blocking activity (IC50), STAT3-luc reporter.
2.6

Data provenance: patent US20250197488A1
